Just for reference, paper PMC11053683 is where these values come from.

# PROTOCOL_SUMMARY: Estimation of the water solubility (DMSO stock diluted with deionized water until sediment)
# Type: physicochemical
# Set-up: key: “5×”: weak; “10×”: middle; “20×”:good’; “50×”: very good; “100×”: excellent
# TEST_SETTINGS: 1 mg in 100 μL DMSO, class by dilution factor
MEASURED_PARAMETER: Water Solubility

C=C(C)C1CCC2(C(=O)O)CCC3(C)C(CCC4C5(C)CCC(O)C(C)(C)C5CCC43C)C12.CCOC(=O)C(C)N (stereo not drawn) [[AlaOEt][BA]] ... weak
C=C(C)C1CCC2(C(=O)O)CCC3(C)C(CCC4C5(C)CCC(O)C(C)(C)C5CCC43C)C12.CCOC(=O)C(N)Cc1ccc(O)cc1 (stereo not drawn) [[TyrOEt][BA]] ... weak
C=C(C)C1CCC2(C(=O)O)CCC3(C)C(CCC4C5(C)CCC(O)C(C)(C)C5CCC43C)C12.CCOC(=O)C1CCCN1 (stereo not drawn) [[ProOEt][BA]] ... weak
C=C(C)C1CCC2(C(=O)O)CCC3(C)C(CCC4C5(C)CCC(O)C(C)(C)C5CCC43C)C12.CCOC(=O)C(N)CO (stereo not drawn) [[SerOEt][BA]] ... middle
C=C(C)[C@@H]1CC[C@]2(C(=O)O)CC[C@]3(C)[C@H](CC[C@@H]4[C@@]5(C)CC[C@H](O)C(C)(C)[C@@H]5CC[C@]43C)[C@@H]12 ... weak

Fill in: Water Solubility of C=C(C)C1CCC2(C(=O)O)CCC3(C)C(CCC4C5(C)CCC(O)C(C)(C)C5CCC43C)C12.CCOC(=O)C(N)Cc1ccccc1 (stereo not drawn) [[PheOEt][BA]] is ___ middle

What measured Water Solubility goes with C=C(C)C1CCC2(C(=O)O)CCC3(C)C(CCC4C5(C)CCC(O)C(C)(C)C5CCC43C)C12.CCOC(=O)CC(N)C(=O)OCC (stereo not drawn) [[Asp(OEt)2][BA]] ? middle

Field request: Water Solubility | item: C=C(C)C1CCC2(C(=O)O)CCC3(C)C(CCC4C5(C)CCC(O)C(C)(C)C5CCC43C)C12.CCOC(=O)C(N)Cc1c[nH]c2ccccc12 (stereo not drawn) [[TrpOEt][BA]] middle

I would be grateful if you could share the reported Water Solubility for C=C(C)C1CCC2(C(=O)O)CCC3(C)C(CCC4C5(C)CCC(O)C(C)(C)C5CCC43C)C12.CCOC(=O)C(N)C(C)CC (stereo not drawn) [[IleOEt][BA]] . weak
